Consider the following compounds; for each one, report its DC50.
- target_or_system: SMARCA4 (Homo sapiens, UniProt P51532)
- Construct: SMARCA2-HiBiT knock-in Hela monoclonal cell (CS302366) and SMARCA4-HiBiT knock-in Hela monoclonal cell (CS3023226) were purchased from Promega; host or cells: HeLa SMARCA4-HiBiT knock-in monoclonal cells (heterozygous knock-in)
- Sequence (P51532 whole entry): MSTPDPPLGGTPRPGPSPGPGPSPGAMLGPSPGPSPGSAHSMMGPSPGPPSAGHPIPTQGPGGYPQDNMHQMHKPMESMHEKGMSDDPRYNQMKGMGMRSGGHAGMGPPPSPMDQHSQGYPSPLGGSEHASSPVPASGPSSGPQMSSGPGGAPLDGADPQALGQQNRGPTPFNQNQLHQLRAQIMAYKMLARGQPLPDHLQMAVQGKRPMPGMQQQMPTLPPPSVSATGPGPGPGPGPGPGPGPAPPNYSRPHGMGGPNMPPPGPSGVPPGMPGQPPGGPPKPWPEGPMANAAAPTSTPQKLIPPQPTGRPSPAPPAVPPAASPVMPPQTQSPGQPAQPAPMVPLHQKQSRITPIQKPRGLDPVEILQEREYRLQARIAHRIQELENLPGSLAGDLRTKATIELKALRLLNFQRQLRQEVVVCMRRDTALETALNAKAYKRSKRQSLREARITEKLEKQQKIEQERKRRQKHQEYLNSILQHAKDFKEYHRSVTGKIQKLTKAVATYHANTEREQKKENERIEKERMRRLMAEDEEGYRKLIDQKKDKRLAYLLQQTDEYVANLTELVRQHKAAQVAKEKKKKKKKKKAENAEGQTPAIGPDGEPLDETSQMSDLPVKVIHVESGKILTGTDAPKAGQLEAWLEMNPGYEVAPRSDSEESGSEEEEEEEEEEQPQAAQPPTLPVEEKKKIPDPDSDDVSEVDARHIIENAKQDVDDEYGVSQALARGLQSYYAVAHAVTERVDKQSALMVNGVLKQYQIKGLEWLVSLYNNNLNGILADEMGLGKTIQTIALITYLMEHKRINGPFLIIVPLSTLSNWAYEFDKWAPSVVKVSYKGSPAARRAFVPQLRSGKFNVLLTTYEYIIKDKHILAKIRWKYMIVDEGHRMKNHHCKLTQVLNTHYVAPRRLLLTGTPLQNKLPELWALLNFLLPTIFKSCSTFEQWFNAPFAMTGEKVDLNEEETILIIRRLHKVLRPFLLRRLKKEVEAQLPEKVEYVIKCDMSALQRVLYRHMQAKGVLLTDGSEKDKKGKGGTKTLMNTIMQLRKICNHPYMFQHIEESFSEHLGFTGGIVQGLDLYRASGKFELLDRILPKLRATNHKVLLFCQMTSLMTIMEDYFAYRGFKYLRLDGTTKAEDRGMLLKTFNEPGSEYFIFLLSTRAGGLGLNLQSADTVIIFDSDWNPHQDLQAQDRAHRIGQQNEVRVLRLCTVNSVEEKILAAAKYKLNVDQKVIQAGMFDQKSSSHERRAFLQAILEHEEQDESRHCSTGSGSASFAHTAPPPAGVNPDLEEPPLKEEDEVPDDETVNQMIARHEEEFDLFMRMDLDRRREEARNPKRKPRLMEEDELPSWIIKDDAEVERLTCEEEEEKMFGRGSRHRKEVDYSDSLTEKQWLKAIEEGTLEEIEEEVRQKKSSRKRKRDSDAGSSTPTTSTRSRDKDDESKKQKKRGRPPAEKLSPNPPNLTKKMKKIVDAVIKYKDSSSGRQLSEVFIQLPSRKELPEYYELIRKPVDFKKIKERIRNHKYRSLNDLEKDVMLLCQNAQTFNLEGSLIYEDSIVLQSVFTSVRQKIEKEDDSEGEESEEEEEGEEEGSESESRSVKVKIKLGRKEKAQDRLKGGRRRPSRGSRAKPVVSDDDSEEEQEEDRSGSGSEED
- experiment: SMARCA4 HiBiT degradation assay in HeLa cells
- Assay type: cell-based
- settings: 18 hours incubation, Nano-Glo HiBiT Lytic detection

Please fill in: DC50 reported for CC[C@]12CNc3nnc(-c4ccccc4O)cc3N1C[C@H](Oc1ccc(CN3CCN(c4ccc(NC5CCC(=O)NC5=O)cc4)CC3)cn1)C2 (stereo partly shown) = < 100 nM

Please fill in: DC50 reported for CC[C@]12CNc3nnc(-c4ccccc4O)cc3N1C[C@H](Oc1ccc(CN3CCN(c4ccc(C(=O)NC5CCC(=O)NC5=O)cc4)CC3)cn1)C2 (stereo partly shown) = 100 to 1000 nM

Please fill in: DC50 reported for "Cn1nc(N2CCC(=O)NC2=O)c2ccc(N3CCC(CN4C[C@@H]5[C@H](C4)[C@H]5CN4CCN5c6cc(-c7ccccc7O)nnc6NC[C@H]5C4)CC3)cc21" = < 100 nM

Please fill in: DC50 reported for CC[C@]12CNc3nnc(-c4ccccc4O)cc3N1C[C@H](Oc1ccc(CN3CCN(c4ccc(C5CCC(=O)NC5=O)cc4)CC3)cn1)C2 (stereo partly shown) = < 100 nM
